Form field: pIC50 (one value per entry).
Molecular target: T1, biotinylated hOX40L (R&D Systems, biotinylated in house) (human, UniProt P23510 51-183, biotinylated with Sulfo-NHS-LC-Biotin, sites not stated)
T1 construct: same bought protein as m10, biotinylated; also called biotinylated OX40L
T1 sequence: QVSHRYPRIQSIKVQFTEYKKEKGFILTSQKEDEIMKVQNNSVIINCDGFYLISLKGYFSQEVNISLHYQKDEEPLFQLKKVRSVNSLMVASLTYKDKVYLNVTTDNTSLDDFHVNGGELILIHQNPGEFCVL
Test: hOX40L/hOX40 AlphaScreen, assay 3, native
pIC50: −log10 of the molar value.
OBSERVATION_TYPE: pIC50

>  <BINDER>
OX40L055 (VHH, not shown: small tags and cut ends) VHH: DVQLVESGGGLVQPGGSLRLSCAASRSIGRLDRMGWYRHRTGEPRELVATITGGSSINYGDFVKGRFTISRDNSKNTVYLQMNNLRPEDTAVYYCNFNKYVTSRDTWGQGTLVTVSS

>  <MEAS_VALUE>
10.04

$$$$
>  <BINDER>
OX40L15B07 (VHH, monovalent Nanobody from E. coli; not shown: C-terminal c-myc and His6 tag) VHH: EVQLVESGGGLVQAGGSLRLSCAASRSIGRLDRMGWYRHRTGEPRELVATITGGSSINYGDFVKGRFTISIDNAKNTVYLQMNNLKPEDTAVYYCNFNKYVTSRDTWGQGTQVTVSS

>  <MEAS_VALUE>
10.11

$$$$
>  <BINDER>
OX40L054 (VHH, not shown: small tags and cut ends) VHH: DVQLVESGGGLVQPGGSLRLSCAASRSIGRLDRMGWYRHRTGEPRELVATITGGSSINYGDFVKGRFTISRDNAKNTVYLQMNSLRPEDTAVYYCNFNKYVTSRDTWGQGTLVTVSS

>  <MEAS_VALUE>
10.10

$$$$
>  <BINDER>
OX40L056 (VHH, not shown: small tags and cut ends) VHH: DVQLVESGGGLVQPGGSLRLSCAASRSIGRLDRMGWYRHRPGKPRELVATITGGSSINYADSVKGRFTISRDNSKNTVYLQMNSLRPEDTAVYYCNFNKYVTSRDTWGQGTLVTVSS

>  <MEAS_VALUE>
8.95

$$$$
>  <BINDER>
OX40L053 (VHH, not shown: small tags and cut ends) VHH: DVQLVESGGGLVQPGGSLRLSCAASRSIGRLDRMGWYRHRTGEPRELVATITGGSSINYGDFVKGRFTISIDNSKNTVYLQMNSLRPEDTAVYYCNFNKYVTSRDTWGQGTLVTVSS

>  <MEAS_VALUE>
9.93

$$$$
>  <BINDER>
OX40L040 (VHH, not shown: small tags and cut ends) VHH: DVQLVESGGGLVQPGGSLRLSCAASRSIGRLDRMGWYRHRTGEPRELVATITGGSSINYGDFVKGRFTISRDNSKNTVYLQMNSLRPEDTAVYYCNFNKYVTSRDTWGQGTLVTVSS

>  <MEAS_VALUE>
9.99

$$$$
>  <BINDER>
OX40L030 (VHH, not shown: small tags and cut ends) VHH: DVQLVESGGGLVQAGGSLRLSCAASRSIGRLDRMGWYRHRTGEPRELVATITGGSSINYGDFVKGRFTISIDNAKNTVYLQMNNLKPEDTAVYYCNFNKYVTSRDTWGQGTQVTVSS

>  <MEAS_VALUE>
9.84

$$$$
>  <BINDER>
OX40L082 (VHH, not shown: small tags and cut ends) VHH: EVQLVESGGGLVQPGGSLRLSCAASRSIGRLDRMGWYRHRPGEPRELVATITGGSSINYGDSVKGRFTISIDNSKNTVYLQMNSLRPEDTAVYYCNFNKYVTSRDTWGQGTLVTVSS

>  <MEAS_VALUE>
9.85

$$$$
